# System: NCI-H23 lung
# Assay Text: NCI-60 one-dose screen, 48 h (100 = growth as untreated, 0 = no growth, -100 = all killed)
# Measurement Parameters: 10 µM
About 83,000 compounds went through this panel and 20% of them were active in at least one assay; those are over-represented in the sample as a whole.
Binary label based on growth with cut-off 90%: below gives Met, not below gives Not met.

[ask] hey, is growth for COc1ccc2oc(=O)cc(C3c4ccc([nH]4)C(c4cc(=O)oc5ccc(OC)cc45)c4ccc([nH]4)C(c4cc(=O)oc5ccc(OC)cc45)c4ccc([nH]4)C(c4cc(=O)oc5ccc(OC)cc45)c4ccc3[nH]4)c2c1 (stereo not drawn) lower than 90% or not?
[reply] Met

[ask] hey, is growth for COc1ccc(-c2nc(NC(=O)CS(=O)(=O)c3ccc(F)cc3)sc2C)cc1 lower than 90% or not?
[reply] Met

[ask] hey, is growth for O=C(Nc1cccc([N+](=O)[O-])c1)NN1CCCCCC1 lower than 90% or not?
[reply] Not met

[ask] hey, is growth for COc1cccc(-c2nnc(COc3ccc(-c4nc5ccccc5[nH]4)cc3OC)o2)c1 lower than 90% or not?
[reply] Not met

[ask] hey, is growth for CCN1CCN(c2nc(NNC(=O)c3cccc(OC)c3)nc(N3CCN(C(c4ccccc4)c4ccccc4)CC3)n2)CC1 lower than 90% or not?
[reply] Met

[ask] hey, is growth for CCCCCC(CCC)COC(=O)c1ccc(OC)cc1 (stereo not drawn) lower than 90% or not?
[reply] Not met

[ask] hey, is growth for COc1cc([C@@H]2c3cc4c(cc3[C@H](SC(=N)N)[C@H]3COC(=O)[C@H]23)OCO4)cc(OC)c1OC lower than 90% or not?
[reply] Met

---

# Tested on: UO-31 renal
# Assay Text: NCI-60 one-dose screen, 48 h (100 = growth as untreated, 0 = no growth, -100 = all killed)
# Measurement Parameters: 10 µM
About 83,000 compounds went through this panel and 20% of them were active in at least one assay; those are over-represented in the sample as a whole.
# growth >= 70% gives label 1, anything below gives label 0

| Compound | Class Assignment |
| --- | --- |
| COc1cc(-c2c(C#N)c(N)n3c(nc4ccccc43)c2C#N)cc(Br)c1OC | label 0 |
| COc1ccc(-c2csc(NC(=O)CO[N+](=O)[O-])n2)cc1 | label 1 |
| COc1ccc(/C=C2\CCC3C(CCCC34OCCO4)C2=O)cc1 (stereo unspecified) | label 1 |

[ask] Hi team, for Clc1cc(Cl)c(OCCCCCCN2CCNCC2)c(Cl)c1 , is the recorded growth at or above 70%?
[reply] label 1

[ask] Hi team, for Cc1cc(Nc2cccc(F)c2)nc(NCc2ccccc2)n1 , is the recorded growth at or above 70%?
[reply] label 0

[ask] Hi team, for COc1cccc2c1O/C(=C\c1ccc([N+](=O)[O-])s1)C2=O , is the recorded growth at or above 70%?
[reply] label 0

[ask] Hi team, for CCN1CCOC1C(C)C (stereo unspecified) , is the recorded growth at or above 70%?
[reply] label 1

[ask] Hi team, for CCc1nn2c(-c3cc(OC)c(OC)c(OC)c3)c(-c3cc(OC)c(OC)c(OC)c3)nc2s1 , is the recorded growth at or above 70%?
[reply] label 1

[ask] Hi team, for CCOC(=O)c1c(Cl)c2c(n1Cc1cccc(OC)c1)-c1oncc1CC2 , is the recorded growth at or above 70%?
[reply] label 0

---

# Test system: LOX IMVI melanoma
# Assay Text: NCI-60 one-dose screen, 48 h (100 = growth as untreated, 0 = no growth, -100 = all killed)
# Measurement Parameters: 10 µM
About 83,000 compounds went through this panel and 20% of them were active in at least one assay; those are over-represented in the sample as a whole. Activity calls are given as the source filed them. Rule for the calls: active = growth percent below 10; inactive = the rest.
Recorded Endpoint: growth

| Smiles Input | Value Reported |
| --- | --- |
| N#Cc1c2c([nH]c(=O)c1C(N)=O)CCCCC2 | 101% (inactive) |

[ask] Could you share which growth value was measured for COc1ccc(-c2nc3sc(-c4ccccc4)c(-c4ccccc4)n3c2/C=C/c2ccc(F)cc2)cc1 ?
[reply] 87.1% (inactive)

[ask] Could you share which growth value was measured for O=[N+]([O-])c1ccc(-c2nc(Cl)c3c(n2)CCCC3)o1 ?
[reply] 21.8% (inactive)

[ask] Could you share which growth value was measured for COc1ccc(-c2nc(NC(=O)CS(=O)(=O)c3ccc(F)cc3)sc2C)cc1 ?
[reply] 51.6% (inactive)

[ask] Could you share which growth value was measured for CCN(CC)CCCOC(=O)Nc1ccccc1Cl ?
[reply] 97.6% (inactive)

[ask] Could you share which growth value was measured for O=[N+]([O-])c1ccc2c(c1)Cc1cc(I)ccc1-2 ?
[reply] 116% (inactive)

---

# Tested on: PC-3 prostate
# Assay Text: NCI-60 one-dose screen, 48 h (100 = growth as untreated, 0 = no growth, -100 = all killed)
# Measurement Parameters: 10 µM
About 83,000 compounds went through this panel and 20% of them were active in at least one assay; those are over-represented in the sample as a whole.
Recorded growth by entry
Give the number; % is assumed, so skip it.

Solved entries:
| Molecule | Target System | Units | growth |
| --- | --- | --- | --- |
| COc1cc(/C=C/C(=O)c2cc(-c3ccc(C(F)(F)F)cc3)ccc2O)cc(OC)c1OC | PC-3 prostate | % | 44.4 |
| NC(=O)C12C(=O)NC(=O)C1(C(=O)O)C21CCCC1 (centres undefined) | PC-3 prostate | % | 99 |
| CCCCCCCCCCCCCCCCn1cc[n+](C)c1 | PC-3 prostate | % | -69.7 |
| O=c1cc(CSc2nnc(-c3ccccc3)n2-c2ccc(F)cc2)c2ccc3ccccc3c2o1 | PC-3 prostate | % | 79 |
| Cc1ccc(S(=O)(=O)Oc2ccccc2-c2ccccc2)cc1 | PC-3 prostate | % | 42.4 |

[ask] Could you share which growth value was measured for Nc1c(C(=O)Nc2ccccc2F)sc2nc3c(cc12)C(=O)CCC3 ?
[reply] 23.4

---

# System: HCT-15 colon
# Assay Text: NCI-60 one-dose screen, 48 h (100 = growth as untreated, 0 = no growth, -100 = all killed)
# Measurement Parameters: 10 µM
This is part of a sample that, as a whole, favours compounds with a hit. Of some 83,000 tested, about 20% had one in any assay. Activity calls are given as the source filed them. Rule for the calls: active = growth percent below 10; inactive = the rest.
Recorded Endpoint: growth

Solved entries:
| Compound | growth |
| --- | --- |
| O=[N+]([O-])c1ccc(S(=O)(=O)OCCCCOS(=O)(=O)c2ccc([N+](=O)[O-])cc2)cc1 | 114% (inactive) |
| COc1ccccc1CNCCCN1C(=O)c2ccc3c4c(ccc(c24)C1=O)C(=O)N(CCCNCCNCCCN)C3=O | 90% (inactive) |
| Clc1cc(Cl)c(Cl)c(-c2nc(-c3cccnc3)cs2)c1 | 87.1% (inactive) |
| Cc1ccc(-n2c(-c3cc4c([nH]c5ccccc54)c(-c4cccc(O)c4)n3)n[nH]c2=S)cc1 | 2.88% (active) |
| N#Cc1c2c([nH]c(=O)c1C(N)=O)CCCCC2 | 105% (inactive) |

[ask] Could you share which growth value was measured for O=NN(CCCl)C(=O)NCc1ccc(-c2ccc(CNC(=O)N(CCCl)N=O)cc2)cc1 ?
[reply] 98.7% (inactive)

[ask] Could you share which growth value was measured for Nc1c(C(=O)Nc2ccccc2F)sc2nc3c(cc12)C(=O)CCC3 ?
[reply] 40.2% (inactive)

[ask] Could you share which growth value was measured for CCOC(=O)[C@@H]1[C@H](c2ccccc2)[C@H]([N+](=O)[O-])[C@H](c2cn(-c3ccccc3)nc2C)N1Cc1ccccc1 ?
[reply] 43% (inactive)

[ask] Could you share which growth value was measured for Cc1c(C(=O)N[C@H](CO)Cc2ccccc2)[nH]c2ccc(Cl)cc2c1=O ?
[reply] 100% (inactive)

[ask] Could you share which growth value was measured for CC(C)OP(=O)(O)c1ncc(-c2ccc(C(F)(F)F)cc2)c(NC2CCCCCC2)n1 ?
[reply] 95.4% (inactive)

[ask] Could you share which growth value was measured for COc1cc(CSc2nc3ccc(C)cc3c(=O)n2-c2ccccc2)cc(OC)c1OC ?
[reply] 30.1% (inactive)

[ask] Could you share which growth value was measured for CCN(CC)CC(O)CNc1ccnc2cc(Cl)c(Cl)cc12 (stereo not given) ?
[reply] 69.5% (inactive)

[ask] Could you share which growth value was measured for Cn1c([N+](=O)[O-])cnc1C=C1C(=O)c2ccccc2C1=O ?
[reply] 23.2% (inactive)

[ask] Could you share which growth value was measured for CCCCOCC(=O)NC(NP(=O)(N(C)C)N(C)C)C(Cl)(Cl)Cl (stereo not given) ?
[reply] 140% (inactive)

[ask] Could you share which growth value was measured for COc1ccc(Cn2cc3c(c2-c2cc(OC)c(OC)c(OC)c2)CCc2cnoc2-3)cc1N ?
[reply] 17.5% (inactive)

[ask] Could you share which growth value was measured for N/C(=N\O)c1cn(C2OC(CO)C(O)C2O)c2ncnc(N)c12 (stereo not given) ?
[reply] 7.46% (active)

[ask] Could you share which growth value was measured for COc1cc(/C=C/C(=O)c2cc(-c3ccc(F)cc3)ccc2O)cc(OC)c1OC ?
[reply] 84.2% (inactive)

[ask] Could you share which growth value was measured for CN1/C(=C\C(I)C(I)C2=[N+](C)c3ccccc3C2(C)C)C(C)(C)c2ccccc21 (stereo not given) ?
[reply] 13.8% (inactive)

[ask] Could you share which growth value was measured for O=C(CCCC(=O)N/N=C/c1cc(Cl)ccc1O)N/N=C\c1cc(Cl)ccc1O ?
[reply] 28.1% (inactive)

[ask] Could you share which growth value was measured for COc1cc(Cn2c(-c3ccccc3)c(Cl)c3c2-c2oncc2CC3)cc(OC)c1 ?
[reply] 80.8% (inactive)
